Data provenance: ChEMBL document CHEMBL3137667

- STATED_CONDITIONS: human, serum
ASSAY_ENDPOINT: Hepatotoxicity (acute)
When you answer, write just the number.

Ask: Any idea what its Hepatotoxicity (acute) is? The molecule is CCC[N+]12[C@H](O)[C@@H](CC)[C@@H]3C[C@H]1[C@@H]1N(C)c4ccccc4[C@]14C[C@H]2C3[C@H]4O (some centres undefined)
Reply: 15

Ask: Which measured Hepatotoxicity (acute) value corresponds to Nc1ccn([C@@H]2O[C@H](CO)[C@@H](O)C2(F)F)c(=O)n1 [GEMCITABINE] ?
Reply: 12

Ask: Would you kindly share the measured Hepatotoxicity (acute) for CCOP(=O)(OCC)C(C)NC(=O)N(CCCl)N=O (centres undefined) [FOTEMUSTINE] ?
Reply: 1

Ask: May I ask what Hepatotoxicity (acute) has been recorded for CCOC(=O)NNc1nncc2ccccc12 [TODRALAZINE] ?
Reply: 3

Ask: Please look up its Hepatotoxicity (acute): CO[C@H]1O[C@@H]2O[C@@]3(C)CC[C@H]4[C@H](C)CC[C@@H]([C@H]1C)[C@@]24OO3
Reply: 0

Ask: What measured Hepatotoxicity (acute) goes with CCCCOCC(CN1C(=O)N(CC(COCCCC)OC(N)=O)C(=O)C(CC)(c2ccccc2)C1=O)OC(N)=O (centres undefined) [DIFEBARBAMATE] ?
Reply: 9

Ask: Quick one: Hepatotoxicity (acute) for CC[C@H](C)C[C@H](C)CCCCCCCCC(=O)N[C@H]1C[C@@H](O)[C@@H](NCCN)NC(=O)[C@@H]2[C@@H](O)CCN2C(=O)[C@H]([C@H](O)CCN)NC(=O)[C@H]([C@H](O)[C@@H](O)c2ccc(O)cc2)NC(=O)[C@@H]2C[C@@H](O)CN2C(=O)[C@H]([C@@H](C)O)NC1=O [CASPOFUNGIN] ?
Reply: 1

Ask: Find the recorded Hepatotoxicity (acute) belonging to CCC1(c2ccccc2)C(=O)NC(=O)NC1=O [PHENOBARBITAL] and report it.
Reply: 30

Ask: Return reported Hepatotoxicity (acute); argument: COc1c(N2CCNC(C)C2)c(F)cc2c(=O)c(C(=O)O)cn(C3CC3)c12 (centres undefined) [GATIFLOXACIN]
Reply: 3

Ask: Param item = Cc1nnc(NS(=O)(=O)c2ccc(N)cc2)s1 [SULFAMETHIZOLE] ; retrieve measured Hepatotoxicity (acute).
Reply: 4

Ask: Which Hepatotoxicity (acute) is reported for this molecule? OC[C@H]1O[C@@H](n2cnc3c2NC=NC[C@H]3O)C[C@@H]1O [PENTOSTATIN]
Reply: 1

Ask: Can you share its Hepatotoxicity (acute)? I mean this molecule: C=CC(N)CCC(=O)O (centres undefined) [VIGABATRIN]
Reply: 2

Ask: May I ask what Hepatotoxicity (acute) has been recorded for C=CCC1(C(C)C#CCC)C(=O)N=C(O)N(C)C1=O (centres undefined) [METHOHEXITAL] ?
Reply: 0

Ask: I have this molecule here, CC1(C)CC(=O)N(CCCCN2CCN(c3ncccn3)CC2)C(=O)C1 [GEPIRONE] , and I need its recorded Hepatotoxicity (acute).
Reply: 0

Ask: Look at this molecule and give its reported Hepatotoxicity (acute). CC[C@H](c1ccc(O)cc1)[C@@H](CC)c1ccc(O)cc1 [HEXESTROL]
Reply: 0

Ask: Sample O=C(O)c1cc(/N=N/c2ccc(O)c(C(=O)O)c2)ccc1O [OLSALAZINE] — what was its Hepatotoxicity (acute)?
Reply: 1

Ask: Given the entry CCOC(=O)[C@H](CCc1ccccc1)N[C@@H](C)C(=O)N1[C@H](C(=O)O)C[C@H]2CCCC[C@@H]21 [TRANDOLAPRIL] , report its measured Hepatotoxicity (acute).
Reply: 1

Ask: Suppose we examine the molecule CC(=O)Oc1cc(C(C)C)c(OCCN(C)C)cc1C [MOXISYLYTE] ; what Hepatotoxicity (acute) value has been reported?
Reply: 5

Ask: Please report the recorded Hepatotoxicity (acute) for CN1C(C(=O)Nc2ccccn2)=C(O)c2sccc2S1(=O)=O [TENOXICAM] .
Reply: 3

Ask: // lookup Hepatotoxicity (acute) for Cc1oc(=O)oc1COC(=O)[C@@H]1N2C(=O)[C@@H](NC(=O)[C@H](N)c3ccccc3)[C@H]2SC1(C)C [LENAMPICILLIN]
Reply: 0

Ask: I have this molecule here, CCN(CC)C(=O)C1(c2ccccc2)CC1CN (centres undefined) , and I need its recorded Hepatotoxicity (acute).
Reply: 1

Ask: Bench note: what Hepatotoxicity (acute) did O=C1NS(=O)(=O)c2ccccc21 [SACCHARIN] show?
Reply: 1

Ask: Any idea what Hepatotoxicity (acute) was measured for CCOC(=O)[C@H](CCc1ccccc1)N[C@@H](C)C(=O)N1Cc2ccccc2C[C@H]1C(=O)O ?
Reply: 1

Ask: Quick check: Hepatotoxicity (acute) of CCOC(=O)/C=C(C)/C=C/C=C(C)/C=C/c1c(C)cc(OC)c(C)c1C [ETRETINATE] ?
Reply: 20

Ask: For Cc1cnc(NC(=O)C2=C(O)c3ccccc3S(=O)(=O)N2C)s1 [MELOXICAM] , what is its reported Hepatotoxicity (acute)?
Reply: 1

Ask: Hepatotoxicity (acute) lookup needed for Cc1cc(C(=O)NCCc2ccc(S(=O)(=O)NC(=O)NN3CCCCCC3)cc2)no1 [GLISOXEPIDE] , thanks.
Reply: 0

Ask: Which Hepatotoxicity (acute) is listed for COCC1=C(C(=O)O)N2C(=O)[C@@H](NC(=O)/C(=N\OC)c3csc(N)n3)[C@H]2SC1 [CEFPODOXIME] ?
Reply: 0

Ask: Give its Hepatotoxicity (acute) value. Item: CCCCCCCCCCCCCCCCOP(=O)([O-])OCC[N+](C)(C)C [MILTEFOSINE]
Reply: 3

Ask: Entry under review: CNC1Cc2ccccc2N(C)c2ccccc21 (centres undefined) [METAPRAMINE] . Reported Hepatotoxicity (acute)?
Reply: 1

Ask: GET /values?readout=Hepatotoxicity (acute)&item= CN[C@@H]1[C@@H](O)[C@@H](O[C@@H]2[C@@H](O)[C@H](O[C@H]3O[C@H](CN)[C@@H](O)[C@H](O)[C@H]3O)[C@@H](N)C[C@H]2NC(=O)[C@@H](O)CN)OC[C@]1(C)O [ISEPAMICIN]
Reply: 0

Ask: Requested read-out: Hepatotoxicity (acute). Entry: COc1ccc(NS(=O)(=O)c2ccc(N)cc2)nn1 [SULFAMETHOXYPYRIDAZINE]
Reply: 4

Ask: I'd like to know its Hepatotoxicity (acute). The molecule in question is CC(Cc1ccccc1)NN (centres undefined) [PHENIPRAZINE]
Reply: 7

Ask: Look up Hepatotoxicity (acute) for this molecule: C(=C\c1ccccc1)/CN1CCN(C(c2ccccc2)c2ccccc2)CC1 [CINNARIZINE]
Reply: 2

Ask: Requested read-out: Hepatotoxicity (acute). Entry: NCCCC(O)(P(=O)(O)O)P(=O)(O)O [ALENDRONIC ACID]
Reply: 3

###

- STATED_CONDITIONS: human
ASSAY_ENDPOINT: Hepatotoxicity (severe hepatitis)

Ask: Reported Hepatotoxicity (severe hepatitis), compound CO/N=C(\C(=O)N[C@@H]1C(=O)N2C(C(=O)O)=C(CSc3nnnn3C)CS[C@H]12)c1csc(N)n1 [CEFMENOXIME] : ____
Reply: 0

Ask: Could you tell me which Hepatotoxicity (severe hepatitis) is on file for CC(C)Nc1ncccn1 [ISAXONINE] ?
Reply: 4

Ask: Which Hepatotoxicity (severe hepatitis) reading was recorded for the compound CCN1CCCC1CNC(=O)c1cc(S(N)(=O)=O)ccc1OC (stereo not given) [SULPIRIDE] ?
Reply: 1

Ask: Requested read-out: Hepatotoxicity (severe hepatitis). Entry: CC(C)(C)C(=O)OCOC(=O)[C@@H]1N2C(=O)[C@@H](/N=C/N3CCCCCC3)[C@H]2SC1(C)C [AMDINOCILLIN PIVOXIL]
Reply: 0

Ask: Which Hepatotoxicity (severe hepatitis) value belongs to FC(F)OC(F)(F)C(F)Cl (stereo not given) ?
Reply: 10

###

- STATED_CONDITIONS: human, serum
Where a SMILES comes first, the peptide text is derived from it. Bridges are numbered along the chain shown (N, C = ends). [ ]: non-standard residue; d: D form. The star is where a group is joined. NMePhe(4-NMe2) = CN[C@@H](Cc1ccc(N(C)C)cc1)C(=O)O; Pip(4-oxo) = O=C1CCN[C@H](C(=O)O)C1; Picolinoyl(3-OH) = O=C(c1ncccc1O)*; Phg = N[C@H](C(=O)O)c1ccccc1; dAbu = CC[C@@H](N)C(=O)O
What Hepatotoxicity (acute) was measured for each of the following?
Give only the figure.

Ask: So what's the measured Hepatotoxicity (acute) for this one? CN(Cc1cnc2nc(N)nc(N)c2n1)c1c(Cl)cc(C(=O)N[C@@H](CCC(=O)O)C(=O)O)cc1Cl
Reply: 0

Ask: // query Hepatotoxicity (acute) value for entry COc1c(C)c2c(c(O)c1C/C=C(\C)CCC(=O)OCCN1CCOCC1)C(=O)OC2 [MYCOPHENOLATE MOFETIL]
Reply: 1

Ask: Need Hepatotoxicity (acute) of CC[C@H]1NC(=O)[C@@H](NC(=O)c2ncccc2O)[C@@H](C)OC(=O)[C@H](c2ccccc2)NC(=O)[C@@H]2CC(=O)CCN2C(=O)[C@H](Cc2ccc(N(C)C)cc2)N(C)C(=O)[C@@H]2CCCN2C1=O [PRISTINAMYCIN 1A] ({Picolinoyl(3-OH)}-T[dAbu]P[NMePhe(4-NMe2)][Pip(4-oxo)][Phg]; ester 1-C) , thanks.
Reply: 1

Ask: Entry O=c1n(CCCN2CCN(c3cccc(Cl)c3)CC2)nc2ccccn12 has what Hepatotoxicity (acute)?
Reply: 8

Ask: I would be grateful if you could share the reported Hepatotoxicity (acute) for COC1=CC(=O)C[C@@H](C)[C@]12Oc1c(Cl)c(OC)cc(OC)c1C2=O .
Reply: 5

Ask: Recorded Hepatotoxicity (acute) for COc1ccc2c(c1)N(C[C@H](C)CN(C)C)c1ccccc1S2 , please?
Reply: 4
